// IC50 lookup, one value per entry
Tested on: Plasmodium falciparum
MEASUREMENT NOTES: In vitro antimalarial activity against chloroquine-sensitive Plasmodium falciparum NF54
Assay type: functional, organism-based
// return numeric value only (unit: nM, not printed)

1) C[C@H]1[C@@H](CC(=O)c2cccc(C(=O)C[C@H]3O[C@@H]4C[C@]5(C)CC[C@H]6[C@H](C)CC[C@@H]([C@H]3C)[C@@]46OO5)c2)O[C@@H]2C[C@]3(C)CC[C@H]4[C@H](C)CC[C@@H]1[C@@]24OO3: 1.9
2) C[C@H]1[C@@H](CC(=O)c2ccc(C(=O)C[C@H]3O[C@@H]4O[C@]5(C)CC[C@H]6[C@H](C)CC[C@@H]([C@H]3C)[C@@]46OO5)cc2)O[C@@H]2O[C@]3(C)CC[C@H]4[C@H](C)CC[C@@H]1[C@@]24OO3: 1.9

With those in mind, consider the next compound.
Query string: Please give measured IC50 of the following entry: `C[C@H]1[C@@H](C#Cc2cccc(C#C[C@H]3O[C@@H]4O[C@]5(C)CC[C@H]6[C@H](C)CC[C@@H]([C@H]3C)[C@@]46OO5)c2)O[C@@H]2O[C@]3(C)CC[C@H]4[C@H](C)CC[C@@H]1[C@@]24OO3`
Result string: 36
